Experiment: NCI Yeast Anticancer Drug Screen. Data for the mlh1 rad18 strain (AID 175)
Conditions: S. cerevisiae mlh1 rad18 strain growth inhibition; at 50.0 µM unless noted
Experimental: Growth inhibition of yeast strains with defined genetic alterations is measured as a screen for potential anti-cancer activity. Selected strains with alterations in DNA damage repair or cell cycle control were exposed to compounds and growth inhibition was measured relative to vehicle treated controls. The strain used in this assay is mlh1 rad18
Compounds without any hit were thinned out: in the full panel of roughly 79,000, 15% have a hit. Activity calls are given as the source filed them. Rule as the data show it: active = growth inhibition above about 70%; inactive = the rest. Where a SMILES comes first, the peptide text is derived from it. The star is where a group is joined. Boc = CC(C)(C)OC(=O)*; OBn = c1ccc(CO*)cc1
Possible outcomes: active, inactive

compound	classAssignment
O=[N+]([O-])c1ccc(NN=C2CCCCC2)c([N+](=O)[O-])c1	inactive
CC(O)C1(O)CCCCC1 (stereo not drawn)	inactive
N#C/C(=C\c1ccco1)C1CCC([N+](=O)[O-])CC1 (stereo not drawn)	inactive
CC(=O)CC(=O)Nc1nc2ccccc2s1	inactive
Cc1ccc(C(N)=O)cc1N=NN(C)C	inactive
O=C(C[n+]1cc(Br)cc2ccccc21)c1ccc(F)cc1	inactive
O=S(=O)(c1ccc(Cl)cc1)S(=O)(=O)c1ccc(Cl)cc1	inactive
CN(C)c1ccc(N=C(C#N)C(=O)c2ccccc2)cc1	inactive
CC(C)(C)NCCS	inactive
Cc1ccc(S(=O)(=O)N/N=C(/c2nc3ccc([N+](=O)[O-])cc3[nH]c2=O)C(O)c2ccc(C(O)/C(=N\NS(=O)(=O)c3ccc(C)cc3)c3nc4ccc([N+](=O)[O-])cc4[nH]c3=O)cc2)cc1 (stereo not drawn)	inactive
O=c1[nH]n(Cc2ccccc2CCl)c2ccc([N+](=O)[O-])cc12	inactive
Cc1ccc(NCC(=O)N2CC(=O)Nc3ccccc32)c(C)c1	inactive
CCOC(=O)c1ccc(Cn2c(C)cc(=O)n(Cc3ccc(C(=O)OCC)cc3)c2=O)cc1	inactive
CN(C)C(=O)NN1CCCCCC1	inactive
CCOC(=O)c1sc(SC)nc1NC(=O)c1ccccc1	inactive
O=C(O)/C(I)=C(\I)c1ccccc1	inactive
Clc1cccc(Cl)c1C1SCc2nc3cc4ccccc4cc3n21 (stereo not drawn)	inactive
CC(C)CC(NC(=O)C(Cc1ccccc1)NC(=O)C(Cc1ccccc1)NC(=O)OC(C)(C)C)C(=O)OCc1ccccc1 (stereo not drawn) (Boc-Phe-Phe-Leu-OBn; configuration not given here)	inactive
CCN(CC)c1ccc(N=Nc2ccc(-c3nc4cccnc4o3)cc2)cc1	inactive
CC(C)CC(C)COC(=O)c1c(Cl)c(Cl)c(Cl)c(Cl)c1C(=O)O (stereo not drawn)	active
O=C(NCC1CC1)c1cccs1	inactive
O=c1cc(CBr)c2ccc(O)cc2o1	inactive
CCN(CC)CCN=c1nc(/C=C\C=C\NN(C)C(=S)SC)c(C)nn1C	inactive

====

assay: NCI Yeast Anticancer Drug Screen. Data for the mec2-1 strain (AID 157); conditions: S. cerevisiae mec2-1 strain; at 50.0 µM unless noted
About 79,000 compounds went through this panel and 15% of them were active in at least one assay; those are over-represented in the sample as a whole. Activity calls are given as the source filed them. No stated cut-off is given here; in the data, active means growth inhibition above about 70%; inactive means the rest.
Possible outcomes: yes (1) for active, no (0) for inactive

compound	classAssignment
O=C(Nc1ccc(Cl)c(Cl)c1)Oc1cccc(NC(=S)Nc2ccccc2)c1	yes (1)
C=C(C)C(=O)O[C@H]1[C@H]2[C@H](OC(=O)[C@H]2C)[C@H](O)[C@@H](C)[C@@H]2C=CC(=O)[C@]21C	no (0)
C=C[C@@]1(C)C=C2CC[C@@H]3[C@](C)(CCC[C@@]3(C)C(=O)O)[C@H]2CC1	no (0)
CN=C1CC2c3cc(OC)c(OC)cc3CCN2C2=C1C(=O)CC(C)(C)C2 (stereo not given)	no (0)
C=CCC1(CN(C)C)CC/C(=C\c2ccc(Cl)cc2)C1=O (stereo not given)	no (0)
O=C(O)c1ccccc1-c1ccccc1	no (0)
OC1(c2cccnc2)c2ccccc2Oc2ccccc21	no (0)
CC1(C)C=C(C(c2cccc([N+](=O)[O-])c2)N2CCCCC2)C(=O)c2ccccc21 (stereo not given)	no (0)
CCCCCCCCCCCC[N+](C)([O-])CCCCCC[N+](C)([O-])CCCCCCCCCCCC (stereo not given)	yes (1)
Cc1ccc(NC(=O)CCS)cc1	no (0)
COc1ccc(C2NC3=C(CCCC3)N2)cc1	no (0)
O=C(CC(=O)c1ccc(OC(=O)c2ccccc2)cc1O)c1ccccc1	no (0)
O/N=C(Sc1ccccn1)/C(=N/O)Sc1ccccn1	no (0)
CCC1(CC)SC=C(C)NC1=O	no (0)
COc1ccccc1NC(=O)Oc1c(C(C)C)cccc1C(C)C	no (0)
CCCSc1nn2cc(NC(=O)OC)nc2s1	no (0)
CO/N=C(/NC(=O)OC)c1ccccc1	no (0)
CCCCCc1cc[n+](CC(=O)c2ccc(F)cc2)cc1	no (0)
CC(=O)OC(C(N)=O)c1ccccc1 (stereo not given)	no (0)
Cc1cc(Nc2nnc(-c3cccnc3Oc3ccccc3)s2)ccc1Br	no (0)
NC(CSS(=O)(=O)O)=NCCCOCc1ccccc1	no (0)
NNC(=O)c1c(O)ccc2ccccc12	no (0)
CC(C)=C1C2CCC1C(CO)C2CO (stereo not given)	no (0)
COC(=O)Nn1c(C)c(C(=O)OC)c(C(=O)Nc2ccccc2)c1-c1ccccc1	no (0)
CN(C)c1nc(N(C)C)nc(N(C)CN(C)c2ccc(Cl)cc2)n1	no (0)
